Biological target: Rap guanine nucleotide exchange factor 4 (Homo sapiens)
Assay: qHTS for Antagonist of cAMP-regulated guanine nucleotide exchange factor 2 (EPAC2): primary screen; note: nearly all actives have a fitted effect of over 45% in size
Details: EPAC2 GEF exchange of Rap1B-BODIPY-GDP, fluorescence; series mostly up to 114 µM
Out of some 360,000 compounds screened, about 660 (0.18%) were called active. Another 2% or so got no clear call; they are omitted. Calls come from the whole dose curve; as a rule, active = well fitted inhibition curve with a large enough effect; inconclusive = small, poorly fitted or top-dose-only effect; inactive = no such curve, though single readings can be large or run the other way. What follows is part of a selection rich in actives, with near analogues and random picks from the rest.
Possible outcomes: t for active, f for inactive

• CCOP(=O)(OCC)C(NC(=O)c1ccc(OC)cc1)C(Cl)(Cl)Cl (stereo not given) = f
• COC(=O)C1=C(c2cc3ccccc3s2)C[C@@H]2CC[C@H]1N2C(=O)NCc1cccc2ccccc12 = f
• CC(c1ccccc1)(c1ccccc1)c1ccncc1 = t
• CCOC(=O)[C@]12Cc3ccccc3[C@H]1N(C1CCCCC1)C(=O)c1cc(OC)ccc12 = t
• CCCC[N+]1(C)C2CC(OC(=O)C(CO)c3ccccc3)CC1C1OC12 (stereo not given) = f
• CCOP(=O)(OCC)C(Cc1ccccc1)N=C(c1ccccc1)c1ccccc1 (stereo not given) = t
• O=C(NC(c1ccc(Cl)cc1)P(=O)(Oc1ccccc1)Oc1ccccc1)OCc1ccccc1 (stereo not given) = f
• C[C@]12CC[C@H](O)C[C@H]1CC[C@@H]1C2CC[C@]2(C)[C@@H](C3=CC(=O)OC3)[C@@H](O)C[C@]12O (stereo not given in full) = f
• COC(=O)C(c1ccccc1)N1CCCCCC1 (stereo not given) = f
• Cc1ccc(-n2c(O)c(C=NCC3CCCO3)c(=O)[nH]c2=O)c(C)c1 (stereo not given) = f
• CN(c1ccccc1)c1ccc([N+](=O)[O-])c2nonc12 = f
• Oc1cc2c(cc1CN1CCN(c3ccccc3)CC1)OCO2 = f
• O=C(OCCN1CCOCC1)C1(c2ccccc2)CCCC1 = f
• Cn1c(O)c(C(=Nc2ccc(F)cc2)c2ccccc2)c(=O)n(C)c1=O = f
• COC(=O)N1C(c2ccccc2)C1c1ccccc1 (stereo not given) = t
